# experimental-system: rat GPR14 (U-II receptor) (Rattus norvegicus, UniProt P49684)
# Construct: expressed in transfected cells
# Sequence (P49684 whole entry): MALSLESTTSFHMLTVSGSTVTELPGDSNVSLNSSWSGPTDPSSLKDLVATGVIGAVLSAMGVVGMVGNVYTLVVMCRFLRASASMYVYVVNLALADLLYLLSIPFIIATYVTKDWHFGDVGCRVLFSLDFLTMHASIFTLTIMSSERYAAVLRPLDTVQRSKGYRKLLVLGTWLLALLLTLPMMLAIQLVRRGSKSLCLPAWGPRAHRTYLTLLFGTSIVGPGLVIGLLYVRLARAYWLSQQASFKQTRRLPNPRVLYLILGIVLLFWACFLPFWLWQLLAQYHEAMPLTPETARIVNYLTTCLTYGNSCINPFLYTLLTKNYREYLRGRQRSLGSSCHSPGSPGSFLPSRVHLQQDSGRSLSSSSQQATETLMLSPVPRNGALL
# assay: Rat UII Calcium Mobilization FLIPR Assay
# Assay type: cell-based
# assay-setup: average value for the compound tested; read-out: Rat UII FLIPR Average IC50
compounds and their reported IC50

- compound: "COc1ccc(C(CCCNS(=O)(=O)c2ccsc2)N2C(=O)c3cccc(N4CCN([C@H](C)c5ccccc5)CC4)c3C2=O)cc1OC (some centres unmarked)"
  metric: "IC50"
  result: "0.068 µM"
- compound: "COc1ccc([C@@H](CCCNC(=O)c2ccncc2)N2C(=O)c3cccc(N4CCN([C@H](C)c5ccccc5)CC4)c3C2=O)cc1OC"
  metric: "IC50"
  result: "0.013 µM"
- compound: "COc1ccc([C@@H](CCCNS(=O)(=O)c2cccs2)N2C(=O)c3cccc(N4CCN(C5CCCCC5)CC4)c3C2=O)cc1OC"
  metric: "IC50"
  result: "0.022 µM"
- compound: "COc1ccc([C@@H](CCCNC(=O)c2csc(C)n2)N2C(=O)c3cccc(N4CCN([C@H](C)c5ccccc5)CC4)c3C2=O)cc1OC"
  metric: "IC50"
  result: "0.035 µM"
- compound: "COc1ccc([C@@H](CCCNC(=O)COC(C)(C)C)N2C(=O)c3cccc(N4CCN([C@H](C)c5ccccc5)CC4)c3C2=O)cc1OC"
  metric: "IC50"
  result: "0.017 µM"

Query string: Give the reported IC50 for this compound. CCC(=O)NCCC[C@H](c1ccc(OC)c(OC)c1)N1C(=O)c2cccc(N3CCN([C@H](C)c4ccccc4)CC3)c2C1=O
Result string: 0.0088 µM

Query string: Give reported IC50 value for COc1ccc([C@@H](CCCNC(=O)C2CCOC2)N2C(=O)c3cccc(N4CCN([C@H](C)c5ccccc5)CC4)c3C2=O)cc1OC (some centres unmarked)
Result string: 0.011 µM

Query string: Determine from records and report IC50 for COc1ccc([C@@H](CCCNC(=O)c2c(C)n[nH]c2C)N2C(=O)c3cccc(N4CCN([C@H](C)c5ccccc5)CC4)c3C2=O)cc1OC
Result string: 0.011 µM

The measurements presented in this section are drawn from patent US8193191B2.
